Molecular target: Gal3S(b1-3)GlcNAc
Assay: glycan array binding signal (z-score within array); higher = stronger binding
Settings: glycan notation: IUPAC condensed, linker removed
Only a selection was taken, and the strongest signals are over-represented in it overall.
Let's look at some binders and their measured glycan array binding signal (z-score).
Value Type: glycan array binding signal (z-score)

Pwp3 (Candida glabrata) (protein) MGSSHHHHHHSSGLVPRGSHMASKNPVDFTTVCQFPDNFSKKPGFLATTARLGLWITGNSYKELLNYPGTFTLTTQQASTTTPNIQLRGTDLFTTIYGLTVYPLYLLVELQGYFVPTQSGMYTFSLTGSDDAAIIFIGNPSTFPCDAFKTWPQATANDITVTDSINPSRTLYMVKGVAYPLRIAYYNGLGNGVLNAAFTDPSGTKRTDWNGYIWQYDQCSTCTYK | -0.36
AidA (Burkholderia cenocepacia) (protein) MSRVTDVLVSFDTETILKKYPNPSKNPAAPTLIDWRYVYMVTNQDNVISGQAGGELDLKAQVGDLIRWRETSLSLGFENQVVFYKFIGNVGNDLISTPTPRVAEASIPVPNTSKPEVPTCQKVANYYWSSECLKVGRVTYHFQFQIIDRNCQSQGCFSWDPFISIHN | 2.41
PfulAvr4 2 (Pseudocercospora fuligena) (protein) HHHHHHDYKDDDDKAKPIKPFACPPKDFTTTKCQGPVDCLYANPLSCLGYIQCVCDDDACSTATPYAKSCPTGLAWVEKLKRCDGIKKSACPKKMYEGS | -0.314

Source listed as the supplement of paper PMC8728848.
